Experiment: qHTS of pediatric cancer cell lines to identify multiple opportunities for drug repurposing: Primary screen for BT-37 cells (AID 1347094)
Details: BT-37 viability, CellTiter-Glo luminescence, 48 h; series mostly up to 57.3 µM
Records with an inconclusive call do not appear. Calls of active or inactive are those of the source. The call rests on the fitted dose curve; in most records, active means well fitted cell-killing curve with a large enough effect; inconclusive means small, poorly fitted or top-dose-only effect; inactive means flat fitted curve, though single readings scatter.
Hi! Could you answer with just one of these? active, inactive

Illustrative cases are given below, each with its answer.
Cc1ccc(NC(=O)C2(c3ccc4c(c3)OC(F)(F)O4)CC2)nc1-c1cccc(C(=O)O)c1 :: active
O=C(Nc1nc2cccc(-c3ccc(CN4CCS(=O)(=O)CC4)cc3)n2n1)C1CC1 :: active
CCOc1ccccc1OCCNC(C)Cc1ccc(OC)c(S(N)(=O)=O)c1 (configuration not stated) :: inactive
CCCCCCCCCC(=O)N[C@@H](Cc1c[nH]c2ccccc12)C(=O)N[C@H](CC(N)=O)C(=O)N[C@@H](CC(=O)O)C(=O)N[C@@H]1C(=O)NCC(=O)N[C@@H](CCCN)C(=O)N[C@@H](CC(=O)O)C(=O)N[C@H](C)C(=O)N[C@@H](CC(=O)O)C(=O)NCC(=O)N[C@H](CO)C(=O)N[C@@H]([C@@H](C)CC(=O)O)C(=O)N[C@@H](CC(=O)c2ccccc2N)C(=O)O[C@@H]1C :: inactive
Clc1cccc(-n2nnnc2NCc2ccccc2Oc2ccccn2)c1Cl :: inactive
NC(=O)c1c(OCc2c(F)cc(Br)cc2F)nsc1NC(=O)NCCCCN1CCCC1 :: active
CCn1cc(-c2ccnc3[nH]c(-c4cccc(CN(C)C)c4)cc23)c(-c2ccc(NC(=O)N(C)C)cc2)n1 :: active
O=C(O)c1ccc2c(c1)nc(Nc1cccc(Cl)c1)c1ccncc12 :: active

As a next step, examine the molecule that follows.
Hi, sorry to bother you, what did the test record for `Nc1ccc(C(=O)c2cc3c(ccc4ccccc43)[nH]2)cc1` ?
active
